Provide the recorded TGI for the entries that follow.
System: K-562 leukemia
Assay: NCI tumour cell line growth inhibition, 48 h

QUERY: Sample CC(C)C(=O)Nc1nc2nc[nH]c2c(=O)[nH]1 — what was its TGI?
RESULT: > 100 µM

QUERY: Quick check: TGI of CN(C)c1nc(=NCc2ccncc2)ss1 ?
RESULT: 47.7 µM

QUERY: I'd like to know its TGI. The molecule in question is COC1(C(=O)N[C@@H](C)c2ccc(-n3cc(F)cn3)nc2)CCC(c2nc(C)cc(Nc3cc(C)[nH]n3)n2)CC1 (some centres undefined)
RESULT: > 100 µM

QUERY: Param item = COc1ccc(C(=O)/C=C/c2ccc(/C=C/c3cc(OC)c(OC)c(OC)c3)cc2)cc1 ; retrieve measured TGI.
RESULT: > 100 µM

QUERY: What value of TGI has been reported for the following molecule? O=C1NCCCc2nonc21
RESULT: > 100 µM

QUERY: Entry C[N+](C)(C)CC(=O)N/N=C(/Cc1nc2c3c(ccc2[nH]c1=O)C(=O)c1ccccc1C3=O)C(=O)Nc1ccc(Cl)c(Cl)c1 : reported TGI = ?
RESULT: > 100 µM

QUERY: Give its TGI value. Item: CCN(CC)c1ccc(C(=C2C=CC(=[N+](CC)Cc3cccc(S(=O)(=O)O)c3)C=C2)c2ccc(N(CC)Cc3cccc(S(=O)(=O)O)c3)cc2)cc1
RESULT: 97.5 µM

QUERY: // TGI lookup, key: COC(=O)NN(C(=O)OC)c1c(-c2ccccc2)nc(SC)n1N
RESULT: > 100 µM

QUERY: So what's the measured TGI for this one? CN(C)c1ccc(-c2c(C#N)c(S)n(NS(=O)(=O)c3ccccc3)c(=O)c2C#N)cc1
RESULT: > 100 µM

###

Task for the reader: assign each of the following compounds its reported TGI.
Test system: UACC-257 melanoma
Experiment: NCI tumour cell line growth inhibition, 48 h

QUERY: // TGI lookup, key: COc1cccc(NC(=O)CC(=O)N2N=C(N(CCC#N)c3ccc(Cl)cc3)CC2c2ccccc2)c1 (centres undefined)
RESULT: > 100 µM

QUERY: Record request: TGI value, item CC(=O)NC(CCCNCc1ccccc1)C(=O)NCc1ccccc1 (centres undefined)
RESULT: > 100 µM

QUERY: Look at this compound and give its reported TGI. O=C(c1ccccc1)C1N=NCC1c1ccc([N+](=O)[O-])cc1 (centres undefined)
RESULT: 88.4 µM

QUERY: What TGI value was documented for this compound, OC[C@@H](O)[C@H]1NC[C@@H](O)[C@H]1O ?
RESULT: > 100 µM

QUERY: Requested read-out: TGI. Entry: CN1CCN(CCc2cccc(C(=O)c3cnn(-c4ccc(F)cc4)c3N)c2)CC1
RESULT: > 25 µM

QUERY: Which value of TGI has been reported for O=C([O-])c1ccccc1Nc1ccccn1.O=C([O-])c1ccccc1Nc1ccccn1.[Ni+2] in the records?
RESULT: > 100 µM

QUERY: TGI lookup needed for C=C(C)CCC(=O)[C@](C)(O)[C@H]1[C@H](O)C[C@@]2(C)[C@@H]3CCc4c(cc(OC5OC(CO)C(O)C(O)C5O)c(O)c4C)C3(C)C(=O)C[C@]12C (some centres undefined) , thanks.
RESULT: > 100 µM

QUERY: Dear colleague, I am looking for the recorded TGI of the following compound: O=c1c2c([nH]c3cc4c(cc13)OCO4)-c1ccccc1CC2
RESULT: > 100 µM

QUERY: Quick check: TGI of CCCCCn1c(=N)n(CC(O)COc2cccc(C)c2)c2ccccc21 (centres undefined) ?
RESULT: 12 µM

###

Could you please report measured TGI for the items listed next?
Test system: A498 renal
Assay: NCI tumour cell line growth inhibition, 48 h
The answer is to be given in µM; state only the numeric part.

QUERY: Consider the compound shown here: CCCCN1CCN(c2ccc3nc(-c4ccc5nc(-c6ccc(C(F)(F)F)cc6)[nH]c5c4)[nH]c3c2)CC1 What is its recorded TGI?
RESULT: 3.45

QUERY: Record request: TGI value, item COC(=O)[C@]12CC[C@@H](C)[C@H](C)[C@@H]1C1=CC[C@@H]3[C@@]4(C)C[C@@H](OC(C)=O)[C@H](O)[C@@](C)(COC(C)=O)[C@@H]4[C@H](O)C[C@@]3(C)[C@]1(C)CC2
RESULT: 7.4

QUERY: // returns reported TGI for input CCN(CC)CCn1ccc(=O)c2cc3c(=O)ccn(CCN(CC)CC)c3c(C)c21
RESULT: 29.2

###

System: NCI-H23 lung
Assay: NCI tumour cell line growth inhibition, 48 h
Parameter: TGI (µM)
Return type: number; implicit unit µM.

QUERY: Looking for the measured TGI of Cc1cc(-c2nc3c(O)cccc3s2)ccc1N , can you help?
RESULT: 89.4

QUERY: I'd like to know its TGI. The compound in question is Cc1[c-]onc1C.Cc1[c-]onc1C.[Ag].[Ag].[NH-]S(=O)(=O)c1ccc(N=Nc2cc(N=Nc3ccc(S([NH-])(=O)=O)cc3)c3c(NC(=O)C(Cl)Cl)cccc3c2OC(=O)C(Cl)Cl)cc1
RESULT: 22.8

###

Tested on: SNB-19 CNS
Test: NCI tumour cell line growth inhibition, 48 h
For each of the molecules below, state its TGI.

QUERY: Name the recorded TGI for Cc1[c-]onc1C.Cc1[c-]onc1C.[Ag].[Ag].[NH-]S(=O)(=O)c1ccc(N=Nc2cc(N=Nc3ccc(S([NH-])(=O)=O)cc3)c3c(NC(=O)C(Cl)Cl)cccc3c2OC(=O)C(Cl)Cl)cc1 .
RESULT: 16.9 µM

QUERY: Record request: TGI value, item C=C1C(=O)O[C@H]2[C@H]1CC/C(COC(=O)NCc1ccccc1OC)=C\CC[C@@]1(C)O[C@@H]21
RESULT: 3.47 µM

QUERY: Item COC1(C(=O)N[C@@H](C)c2ccc(-n3cc(F)cn3)nc2)CCC(c2nc(C)cc(Nc3cc(C)[nH]n3)n2)CC1 (stereo partly drawn) has what recorded TGI?
RESULT: 51.4 µM

QUERY: Form field: reported TGI of CC/C=C\C=C/C(=O)N/C=C/CC1Cc2cccc(O)c2C(=O)O1 (stereo not drawn)
RESULT: > 100 µM

QUERY: Any idea what its TGI is? The molecule is COc1c2c(c3c(c1CCC(=O)O)OC(C)(C)C=C3)OC(C)(C)C=C2
RESULT: > 100 µM

QUERY: Quick one: TGI of Nn1c(CCCCCCCCc2nnc(COc3c(O)ccc4ccccc34)n2N)nnc1COc1c(O)ccc2ccccc12 ?
RESULT: > 100 µM

QUERY: Bench note: what TGI did N#Cc1c(-c2ccccc2)/c(=C\Nc2ccc(Cl)cc2)c(=O)n2c1nc1ccccc12 show?
RESULT: > 100 µM

QUERY: Look up TGI: COC(=O)CCC1CCc2c(OC)ccc(O)c2C1=O (stereo not drawn)
RESULT: > 100 µM

###

System: SN12C renal
Assay: NCI tumour cell line growth inhibition, 48 h
Values of TGI greater than or equal to 20 µM map to Y; values below map to N.

QUERY: Decide: is the reported value of TGI for Cc1ccc(/C=C2\CN(C(=O)OC(C)(C)C)C/C(=C\c3ccc(C)cc3)C2=O)cc1 equal to or greater than 20 µM?
RESULT: Y

QUERY: TGI >= 20 µM for Cc1ccc(C(=O)O/N=C2/CCC/C2=C\c2ccccc2)cc1 ?
RESULT: Y

QUERY: Given the entry CN(C)c1ccc(-c2c(C#N)c(S)n(NS(=O)(=O)c3ccccc3)c(=O)c2C#N)cc1 , answer whether its TGI meets or surpasses 20 µM.
RESULT: Y

QUERY: Determine whether measured TGI meets or exceeds 20 µM for CCSC1=CC(=O)c2nc3ccccc3c3ccnc1c23
RESULT: N

QUERY: # check: TGI of CC(=O)OC(C)c1cc2c(s1)C(=O)c1sccc1C2=O (stereo unspecified) is greater than or equal to 20 µM
RESULT: N

QUERY: Determine whether this compound has TGI no lower than 20 µM: COC(=O)NN(C(=O)OC)c1c(-c2ccccc2)nc(SC)n1N
RESULT: Y

QUERY: Check if TGI >= 20 µM (inclusive). Item: CC(C)(C)N=c1n(C(C)(C)C)oc(=O)n1C(C)(C)C
RESULT: Y

QUERY: Given N#CC(C(=O)/C(=N/NC(=O)c1ccccc1O)C(C#N)c1ccc(Cl)cc1)c1ccc(Cl)cc1 (stereo unspecified) , state whether its TGI is at least 20 µM.
RESULT: Y

QUERY: Threshold query (TGI >= 20 µM) on CCCN=Cc1cc(Cc2ccc(O)c(C=NCCC)c2)ccc1O
RESULT: N

QUERY: Dear colleague, could you confirm whether COc1ccc(-c2ccc(/C=N/n3c(COc4ccc(Cl)cc4Cl)n[nH]c3=S)o2)c([N+](=O)[O-])c1 has TGI at or above 20 µM?
RESULT: Y

QUERY: Confirm if TGI reported for the compound O=C1NCCCc2nonc21 is 20 µM or above.
RESULT: Y

QUERY: Please tell me: is the compound Cc1ccc2c(ccc3c[n+]4c5ccccc5ccc4n32)c1 at or over 20 µM in terms of TGI?
RESULT: N

QUERY: Check this compound for TGI at or above 20 µM: Oc1ccc(-c2nnc3sc(-c4ccc(F)cc4)nn23)cc1
RESULT: Y

QUERY: Could you please find out whether COc1cccc(NC(=O)CC(=O)N2N=C(N(CCC#N)c3ccc(Cl)cc3)CC2c2ccccc2)c1 (stereo unspecified) has TGI that meets 20 µM or exceeds it?
RESULT: Y

QUERY: Evaluate O=[N+]([O-])C(=C(N1CCCCC1)N1CCCCC1)/C(Cl)=C(\Cl)Br : TGI at minimum 20 µM?
RESULT: Y

QUERY: Say whether CCOC1CC(=O)c2c(Br)sc(Br)c21 (stereo unspecified) shows TGI of 20 µM or more.
RESULT: Y

QUERY: Quick check: does COc1ccc(N2C(=O)c3c4c(c5c([nH]c6ncccc65)c3C2=O)CCC(C(C)(C)C)C4)cc1 (stereo unspecified) have TGI greater than or equal to 20 µM?
RESULT: Y

QUERY: Textbook exercise: given the entry O=C1OC(=O)C(c2c[nH]c3ccccc23)=C1c1c[nH]c2ccccc12 , state whether its TGI is greater than or equal to 20 µM.
RESULT: Y

QUERY: Dear colleague, could you confirm whether COc1nc(NC2OCC(OC(C)=O)C(OC(C)=O)C2OC(C)=O)c(N=CC=Nc2c(NC3OCC(OC(C)=O)C(OC(C)=O)C3OC(C)=O)nc(OC)n(C)c2=O)c(=O)n1C (stereo unspecified) has TGI at or above 20 µM?
RESULT: Y

QUERY: Identify whether the reported TGI of the following compound is 20 µM or greater: O=C(O)c1ccc([Se][Se]c2ccc(C(=O)O)cc2)cc1
RESULT: Y

QUERY: Given COc1cc2c(cc1OCCCCOc1cc(-c3ccc(F)cc3)nc(C)n1)N=C[C@@H]1CCCN1C2=O , state whether its TGI is at least 20 µM.
RESULT: N

Numbers sourced from PubChem BioAssay (NCI).
